The entries below are paired with their reported GI50.
system: Malme-3M; experiment: NCI tumour cell line growth inhibition, 48 h
Calls of active or inactive are those of the source. No stated cut-off is given here; in the data, active = GI50 up to about 1.1 µM and inactive = higher.

Ask | # lookup: GI50 of "Cc1cn2c(/C=C3/C(=O)Nc4cccc(Cl)c43)c(Cl)nc2s1"
Reply | > 100 µM (inactive)

Ask | # lookup: GI50 of COc1ccc(OC)c(CC(C)N)c1 (stereo unspecified)
Reply | > 100 µM (inactive)

Ask | # lookup: GI50 of "CO/C(=N\N=C(/C)C(F)(F)F)c1ccncc1"
Reply | > 100 µM (inactive)

Ask | # lookup: GI50 of "O=C(O)CN1CCSc2ccccc2CN(CC(=O)O)CCSc2ccccc2C1"
Reply | > 100 µM (inactive)

====

system: UACC-62; assay: NCI tumour cell line growth inhibition, 48 h
Active and inactive are the calls of the source. Rule as the data show it: active = GI50 up to about 1.1 µM and inactive = higher.
The entries below are paired with their reported GI50.

Ask | # lookup: GI50 of [N-]=[N+]=NC(CBr)c1cn([C@H]2C[C@H](O)[C@@H](CO)O2)c(=O)[nH]c1=O (stereo partly specified)
Reply | > 100 µM (inactive)

Ask | # lookup: GI50 of CC1CC(=O)Nc2ccccc2N1C(=O)CN1CCC(CCCCN(C)C)CC1 (stereo unspecified)
Reply | > 100 µM (inactive)

Ask | # lookup: GI50 of CC1(c2nc3ccccc3[nH]2)CCC(C(=O)O)C(C)(C)O1 (stereo unspecified)
Reply | > 100 µM (inactive)

====

system: U-251; assay: NCI tumour cell line growth inhibition, 48 h
Activity calls are given as the source filed them. Rule as the data show it: active = GI50 up to about 1.1 µM and inactive = higher.
The entries below are paired with their reported GI50.

>>> recorded_result("C/C(=N/NC(=S)N1CCN(C(=S)N/N=C(/C)c2ccccn2)CC1)c1ccccn1")
"8.89 µM (inactive)"

Ask | # lookup: GI50 of "CCCCOCc1cc(CN2CCN(C)CC2)c(O)c2ncccc12"
Reply | 12.5 µM (inactive)

Ask | # lookup: GI50 of O=C1C(=c2cc3c(c4ccccc24)=NC24CCCCC2C(c2ccccc2)C=C(c2ccccc2)N34)C(=O)c2ccccc21 (stereo not given)
Reply | 36.8 µM (inactive)

Ask | # lookup: GI50 of "O=C(Nc1nn(C(=O)c2cccnc2)c(=O)s1)c1ccc(Cl)cc1"
Reply | 74 µM (inactive)

====

The entries below are paired with their reported GI50.
test system: HT-29; assay: NCI tumour cell line growth inhibition, 48 h
Activity calls are given as the source filed them. Cut-off read from the data, not from the text of the source: active = GI50 up to about 1.1 µM and inactive = higher.

>>> recorded_result("COc1ccc2c(c1)CC[C@@H]1[C@@H]2CC[C@]2(C)[C@@H](O)/C(=C/c3ccncc3)C[C@@H]12")
"3.99 µM (inactive)"
>>> recorded_result("CCOC(=O)c1ccc(Nc2nc3ccc(C(F)(F)F)cc3nc2-c2ccccc2)cc1")
"67.9 µM (inactive)"
>>> recorded_result("O=C1C(=c2cc3c(c4ccccc24)=NC24CCCCC2C(c2ccccc2)C=C(c2ccccc2)N34)C(=O)c2ccccc21 (stereo not given)")
"53 µM (inactive)"
>>> recorded_result("C[C@]12CC[C@@H]3c4ccc(OC(=O)c5ccccc5)cc4CC[C@H]3[C@@H]1CC[C@@H]2Oc1c2ccccc2nc2ccccc12")
"5.83 µM (inactive)"
>>> recorded_result("[O-][S+](c1ccccc1)C1CC2CC3(CCC21O)OCCO3 (stereo not given)")
"> 100 µM (inactive)"

Ask | # lookup: GI50 of "COc1ccc(C(=O)NCCN(C)C)c2nc3ccccc3nc12"
Reply | 2.76 µM (inactive)

Ask | # lookup: GI50 of O=C(O)C1C(C(=O)Nc2ccc3c(c2)Cc2ccccc2-3)C2(Cl)C(Cl)=C(Cl)C1(Cl)C2(Cl)Cl (stereo not given)
Reply | 20.3 µM (inactive)

Ask | # lookup: GI50 of "CN(C)CCNC(=O)c1cccc2nc3cc(Cl)ccc3nc12"
Reply | 1.36 µM (inactive)

Ask | # lookup: GI50 of CC(N)(CC(O)(C(F)(F)Cl)C(F)(F)Cl)C(=O)O (stereo not given)
Reply | > 10 µM (inactive)

Ask | # lookup: GI50 of "NC(=O)C(=O)Cc1nc2ccccc2s1"
Reply | > 100 µM (inactive)
